- TARGET OF ASSAY: second bromodomain of Brd2 (BRD2(2)) (Homo sapiens)
- Construct: made in house; host or cells: E. coli BL21 (DE3)
- Sequence (P25440 344-453 limits assumed): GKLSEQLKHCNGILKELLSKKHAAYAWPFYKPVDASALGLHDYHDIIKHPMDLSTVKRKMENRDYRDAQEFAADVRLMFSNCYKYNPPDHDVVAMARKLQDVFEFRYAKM
- PROTOCOL TEXT: Inhibition of tetra-acetylated histone H4 binding to Brd2 bromodomain 2 (TR-FRET)
- Parameters: key: Active: Compounds with an IC50 value less than 30 μM were deemed to be active.; Not Active: Compounds with an IC50 value less than 30 μM were deemed to be active
- PROTOCOL CONDITIONS: tetra-acetylated histone H4 peptide, active = IC50 <30 μM
RECORDED ENDPOINT: FRET activity (IC50 <30 μM) BRD2(2)

Example results:
>>> reported("COc1cc(-c2ccc(=O)n(Cc3ccccc3C#N)c2)cc(OC)c1OC")
"Active"
>>> reported("Cc1noc(C)c1-c1ccc(=O)n(Cc2ccccc2Cl)c1")
"Active"
>>> reported("Cc1noc(C)c1-c1ccc(=O)n(Cc2ccc(C(N)=O)cc2)c1")
"Active"
>>> reported("O=c1ccc(-c2cncs2)cn1Cc1ccccc1")
"Active"

Query: Record request: FRET activity (IC50 <30 μM) BRD2(2) value, item "COc1ccc(Nc2ccc(=O)n(Cc3ccccc3)c2)cc1OC"
Result: Active

---

Entries and their melting point values follow.

>>> reported("Cc1noc(C)c1-c1cn(Cc2ccccc2)c(=O)c2cnccc12 [Example 175]")
"174 to 177 °C"
>>> reported("Cc1noc(C)c1-c1cn(Cc2ccccc2)c(=O)c2ccncc12 [Example 176]")
"159 to 161 °C"
>>> reported("COc1cc(-c2cn(Cc3ccccc3)c(=O)c3ccccc23)ccc1O [Example 169]")
"165 to 167 °C"
>>> reported("COc1cc(Nc2cn(Cc3ccccc3)c(=O)c3ccccc23)cc(OC)c1OC [Example 172]")
"162 to 164 °C"
>>> reported("Cc1noc(C)c1-c1cn(Cc2ccccc2)c(=O)c2cccnc12 [Example 173]")
"192 to 195 °C"
>>> reported("Cc1noc(C)c1-c1cn(Cc2ccccc2)c(=O)c2ccccc12 [Example 167]")
"139 to 141 °C"
>>> reported("COc1cc(-c2nn(Cc3ccccc3)c(=O)c3ccccc23)ccc1O [Example 165]")
"197 to 200 °C"
>>> reported("COc1cc(-c2cn(Cc3ccccc3)c(=O)c3ccccc23)cc(OC)c1OC [Example 168]")
"166 to 168 °C"
>>> reported("COc1ccc(-c2cn(Cc3ccccc3)c(=O)c3ccccc23)cc1OC [Example 166]")
"174 to 176 °C"

# evaluate next
Query: Record request: melting point value, item Cc1noc(C)c1-c1cn(Cc2ccccc2)c(=O)c2ncccc12 [Example 174]
Result: 168 to 170 °C
